system: CCRF-CEM; assay: NCI tumour cell line growth inhibition, 48 h
Active and inactive are the calls of the source. Cut-off read from the data, not from the text of the source: active = GI50 up to about 1.1 µM and inactive = higher.
List of GI50 values.
MEASURED PARAMETER: GI50

[[record]]
molecule = "CC1/C=C/[C@@]2(C)CCC(C(C)(C)O)C2C(O)C[C@](C)(O)/C=C/C1 (some centres undefined)"
measured_parameter = "GI50"
observed_value = "> 100 µM (inactive)"

[[record]]
molecule = "Cc1ccc([N+](=O)[O-])cc1S(=O)(=O)Nc1ccc(C2=NN(S(=O)(=O)c3cc([N+](=O)[O-])ccc3C)C(c3ccccc3O)C2)cc1 (centres undefined)"
measured_parameter = "GI50"
observed_value = "> 100 µM (inactive)"

[[record]]
molecule = "CC(=O)NNc1nc(C)c(C(=O)NNC(=O)C(=O)Nc2c(C)cccc2C(C)C)s1"
measured_parameter = "GI50"
observed_value = "34.5 µM (inactive)"

[[record]]
molecule = "COc1ccc(NC(=O)CSC(=O)c2ccccc2)c(SCCSSCCSc2cc(OC)ccc2NC(=O)CSC(=O)c2ccccc2)c1"
measured_parameter = "GI50"
observed_value = "79.6 µM (inactive)"


====

Here the recorded GI50 is given for each entry.
tested on: HOP-62; test: NCI tumour cell line growth inhibition, 48 h
Calls of active or inactive are those of the source. No stated cut-off is given here; in the data, active = GI50 up to about 1.1 µM and inactive = higher.
MEASURED PARAMETER: GI50

[[record]]
compound = "COc1ccc(C2=Nc3cc(C)c(C)cc3NC(c3ccccc3)C2)cc1 (stereo unspecified)"
measurement_target = "HOP-62"
measured_parameter = "GI50"
observed_value = "> 100 µM (inactive)"

[[record]]
compound = "COc1ccc(/C=C/C(=O)c2sc(-n3nc(-c4ccccc4)cc3-c3ccccc3)nc2C)cc1OC"
measurement_target = "HOP-62"
measured_parameter = "GI50"
observed_value = "57.1 µM (inactive)"

[[record]]
compound = "CCCCCCCCCCCCCC(=O)OCC1OC(OC)C(NC(=O)N(CCCl)N=O)C(O)C1O (stereo unspecified)"
measurement_target = "HOP-62"
measured_parameter = "GI50"
observed_value = "17.2 µM (inactive)"

[[record]]
compound = "C1CNCCNCCN1"
measurement_target = "HOP-62"
measured_parameter = "GI50"
observed_value = "> 100 µM (inactive)"

[[record]]
compound = "NC1=NCCN1CC(=O)O"
measurement_target = "HOP-62"
measured_parameter = "GI50"
observed_value = "> 1000 µM (inactive)"

[[record]]
compound = "Cc1ccccc1/N=N/C(C(=O)c1ccccc1)C(=O)c1ccccc1"
measurement_target = "HOP-62"
measured_parameter = "GI50"
observed_value = "23.8 µM (inactive)"


====

The compounds listed here are annotated with their GI50.
test system: SF-268; assay: NCI tumour cell line growth inhibition, 48 h
Activity calls are given as the source filed them. No stated cut-off is given here; in the data, active = GI50 up to about 1.1 µM and inactive = higher.
MEASURED PARAMETER: GI50

[[record]]
compound = "Cn1cnnc1Sc1c([N+](=O)[O-])ncn1C"
measurement_target = "SF-268"
observed_value = "> 100 µM (inactive)"

[[record]]
compound = "CCN(CC)/N=C\\c1c2ccccc2cc2ccccc12"
measurement_target = "SF-268"
observed_value = "72.8 µM (inactive)"

[[record]]
compound = "COc1ccc(OC)c(CSc2ccc(OC)c(OC)c2)c1"
measurement_target = "SF-268"
observed_value = "> 100 µM (inactive)"

[[record]]
compound = "Cc1c(C(=O)OCc2ccccc2)[n+]([O-])c2ccccc2[n+]1[O-]"
measurement_target = "SF-268"
observed_value = "34.7 µM (inactive)"

[[record]]
compound = "O=C1/C(=C/c2cccc([N+](=O)[O-])c2)COc2ccc(Br)cc21"
measurement_target = "SF-268"
observed_value = "> 100 µM (inactive)"

[[record]]
compound = "CCN(CC)CCNc1ccc2nnn3c4ccc(C)cc4c(=O)c1c23"
measurement_target = "SF-268"
observed_value = "10.2 µM (inactive)"

[[record]]
compound = "O=P(NCCCO)(OCc1ccccc1)N(CCCl)CCCl (stereo unspecified)"
measurement_target = "SF-268"
observed_value = "> 100 µM (inactive)"

[[record]]
compound = "O=C(N/N=C(/c1nc2ccc([N+](=O)[O-])cc2[nH]c1=O)C(O)c1ccc([N+](=O)[O-])cc1)c1ccncc1 (stereo unspecified)"
measurement_target = "SF-268"
observed_value = "> 100 µM (inactive)"

[[record]]
compound = "C=C1CC2(CCOc3ccc(Cl)cc32)OC1=O (stereo unspecified)"
measurement_target = "SF-268"
observed_value = "6.22 µM (inactive)"

[[record]]
compound = "COc1ccc2cc(/C=N\\NC(=O)Nc3ccc([N+](=O)[O-])cc3)ccc2c1"
measurement_target = "SF-268"
observed_value = "12.8 µM (inactive)"

[[record]]
compound = "CCC1C(NC(=O)OC)C(=O)N1[C@@H](C)c1ccccc1 (stereo partly specified)"
measurement_target = "SF-268"
observed_value = "> 100 µM (inactive)"


====

tested on: RPMI-8226; assay: NCI tumour cell line growth inhibition, 48 h
Calls of active or inactive are those of the source. Cut-off read from the data, not from the text of the source: active = GI50 up to about 1.1 µM and inactive = higher.
Labels: true (1) = active, false (0) = inactive

[[record]]
compound = "COC(=O)C(CCCCN)NC(=O)C(CCCCN)NC(C)=O.Cc1ccc(C(=O)Nc2ccc(S(=O)(=O)O)c3cc(S(=O)(=O)O)cc(S(=O)(=O)O)c23)cc1NC(=O)c1cccc(NC(=O)Nc2cccc(C(=O)Nc3cc(C(=O)Nc4ccc(S(=O)(=O)O)c5cc(S(=O)(=O)O)cc(S(=O)(=O)O)c45)ccc3C)c2)c1"
label_class = "false (0)"

[[record]]
compound = "COC(=O)C1(C)CCc2c(ccc3ccccc23)C1=O (centres undefined)"
label_class = "false (0)"

[[record]]
compound = "CCOn1cc(C[C@@]2(O)C(=O)OC3[C@@H](O)CO[C@@]32O)c2ccccc21 (some centres undefined)"
label_class = "false (0)"

[[record]]
compound = "CC1(c2ccc[n+](Cc3ccccc3)c2)OCCO1"
label_class = "false (0)"

[[record]]
compound = "CN1CCC23c4ccccc4NC1C21CCN(C)C3Nc2ccccc21"
label_class = "false (0)"

[[record]]
compound = "COC(=O)[C@]1(Cc2ccc3ccccc3c2)CCCCCCN1C(=O)c1ccccc1"
label_class = "false (0)"

[[record]]
compound = "COc1ccc(N2C(=O)C3c4[nH]c5ccccc5c4C4CCCCCCCCCC4C3C2=O)cc1 (centres undefined)"
label_class = "false (0)"

[[record]]
compound = "O=c1[nH]nc(-c2ccccc2)c(-c2ccccc2)c1-n1nc(-c2ccccc2)c2ccccc2c1=O"
label_class = "false (0)"

[[record]]
compound = "Nc1nc(=O)c2cc(NCc3ccc(C(=O)NC(CCC(=O)O)C(=O)O)cc3)ccc2[nH]1 (centres undefined)"
label_class = "false (0)"

[[record]]
compound = "CCCCOc1ccc(S(=O)(=O)/N=C(\\NN)Nc2ccc(Cl)cc2)cc1"
label_class = "false (0)"

[[record]]
compound = "COc1cc(C2c3[nH]c4ccccc4c3C[C@H]3COC(=O)N23)cc(OC)c1OC (some centres undefined)"
label_class = "true (1)"

[[record]]
compound = "C=CC[C@]1(C2=NC(C)(C)CO2)c2ccccc2-c2ccccc2[C@H]1C(C)=O"
label_class = "false (0)"

[[record]]
compound = "CCNCC(=O)O[C@]1(CC)C(=O)OCc2c1cc1n(c2=O)Cc2cc3ccccc3nc2-1"
label_class = "true (1)"

[[record]]
compound = "Cc1cc(C)n(-c2nsc3ccccc23)n1"
label_class = "false (0)"

[[record]]
compound = "O=C(C(O)c1cn(Cc2ccccc2)c2ccccc12)N1CCCCC1 (centres undefined)"
label_class = "false (0)"

[[record]]
compound = "CNS(=O)(=O)c1ccc2c(c1)/C(=C1/Nc3ccccc3C1=O)C(=O)N2"
label_class = "false (0)"

[[record]]
compound = "O=C(Cc1ccccc1)NNc1nc(NNC(=O)c2ccncc2)nc(Nc2ccc([N+](=O)[O-])cc2)n1"
label_class = "false (0)"

[[record]]
compound = "COc1cc2c(cc1OC)C(O)[C@H](Br)C(C)(C)O2 (some centres undefined)"
label_class = "false (0)"

[[record]]
compound = "O=[N+]([O-])c1cccc2nc3ccccc3c(NCCO)c12"
label_class = "true (1)"


====

test system: PC-3; experiment: NCI tumour cell line growth inhibition, 48 h
The source made the active and inactive calls. No stated cut-off is given here; in the data, active = GI50 up to about 1.1 µM and inactive = higher.
Labels: 1 (active), -1 (inactive)

[[record]]
compound = "CC(C)C(/C=C/c1ccccc1)=N\\NC(=S)NN"
label_class = -1

[[record]]
compound = "N#CC(C#N)=C1c2ccccc2C(=NN)c2ccccc21"
label_class = -1

[[record]]
compound = "C=CC(=O)N1C/C(=C\\c2ccc(F)cc2)C(=O)/C(=C/c2ccc(F)cc2)C1"
label_class = 1

[[record]]
compound = "CN1CCc2ccccc2C1Cc1ccccc1NC(=O)c1sc2ccccc2c1Cl (stereo not given)"
label_class = -1

[[record]]
compound = "CC1OC(OC2C(OC3CCC4(C)C(CCC5(C)C4CC=C4C6CC(C)(C)CCC6(C(=O)O)CCC45C)C3(C)CO)OCC(O)C2O)C(O)C(O)C1O (stereo not given)"
label_class = -1

[[record]]
compound = "CCC1C(NC(=O)OC)C(=O)N1[C@@H](C)c1ccccc1 (stereo not given in full)"
label_class = -1

[[record]]
compound = "Cc1c(C(=O)OCc2ccccc2)[n+]([O-])c2ccccc2[n+]1[O-]"
label_class = -1

[[record]]
compound = "CC(C)OP(=O)(OC(C)C)c1c(N)n[nH]c1Nc1ccccc1"
label_class = -1

[[record]]
compound = "COc1ccc(OC)c(CSc2ccc(OC)c(OC)c2)c1"
label_class = -1

[[record]]
compound = "OC1(c2ccc3ccccc3c2)c2ccc3ccccc3c2C2=NCCN21 (stereo not given)"
label_class = -1

